Assignment: determine reported pEC50 for the given molecules.
Target: NAMPT enzyme (Homo sapiens (Human))
Sequence (P43490 whole entry, species assumed): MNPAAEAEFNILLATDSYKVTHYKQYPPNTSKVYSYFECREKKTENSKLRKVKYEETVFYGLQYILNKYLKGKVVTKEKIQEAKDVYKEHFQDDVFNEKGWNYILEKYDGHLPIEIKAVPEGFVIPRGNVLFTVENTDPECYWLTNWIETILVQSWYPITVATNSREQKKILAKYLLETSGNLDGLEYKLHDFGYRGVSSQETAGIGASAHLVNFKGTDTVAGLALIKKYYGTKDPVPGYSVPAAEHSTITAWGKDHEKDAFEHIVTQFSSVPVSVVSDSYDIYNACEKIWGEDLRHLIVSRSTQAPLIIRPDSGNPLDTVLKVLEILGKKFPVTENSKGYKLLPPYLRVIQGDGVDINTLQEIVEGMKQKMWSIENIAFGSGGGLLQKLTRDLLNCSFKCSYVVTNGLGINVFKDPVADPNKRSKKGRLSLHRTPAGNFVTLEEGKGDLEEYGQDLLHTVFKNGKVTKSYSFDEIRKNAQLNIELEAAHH
Assay: Enzyme Assay and NMN Detection (NAMPT reaction, fluorescence detection of NMN)
Assay type: biochemical
Settings: Table B-1; NAMPT activation, NMN formation
pEC50: −log10 of the molar value.

Enquiry: Return reported pEC50. Input molecule: "CC(C)N(Cc1ccccc1)S(=O)(=O)c1ccc(NC(=O)NCc2nccs2)cc1"
Return: < 4.70

Enquiry: Return reported pEC50. Input molecule: "O=C(NCc1cn[nH]c1)Nc1ccc(C(=O)Nc2ccc(Cl)cc2)cc1"
Return: 5.70 to 7.00

Enquiry: Return reported pEC50. Input molecule: "O=C(NCc1cn[nH]c1)Nc1ccc(NS(=O)(=O)c2ccccc2)cc1"
Return: > 7.00

Enquiry: Return reported pEC50. Input molecule: "CCOC(=O)c1ccc(NC(=O)NCc2c[nH]nc2N)cc1"
Return: < 4.70

Enquiry: Return reported pEC50. Input molecule: "CC(C)N(Cc1ccccc1)S(=O)(=O)c1ccc(NC(=O)NCc2cn[nH]c2)cc1"
Return: > 7.00

Enquiry: Return reported pEC50. Input molecule: "CC(C)N(Cc1ccccc1)S(=O)(=O)c1ccc(NC(=O)NCc2cnco2)cc1"
Return: > 7.00

Enquiry: Return reported pEC50. Input molecule: "O=C(NCc1cnco1)Nc1ccc(S(=O)(=O)N2CCc3ccccc3C2)cc1"
Return: 5.70 to 7.00

Enquiry: Return reported pEC50. Input molecule: "O=C(NCc1cn[nH]c1)Nc1ccc(S(=O)(=O)NCc2ccccc2)cc1"
Return: 5.70 to 7.00

Enquiry: Return reported pEC50. Input molecule: "CC(C)N(Cc1ccccc1)S(=O)(=O)c1ccc(NC(=O)NCc2cncs2)cc1"
Return: > 7.00

Enquiry: Return reported pEC50. Input molecule: "O=C(NCc1cn[nH]c1)Nc1ccc(C(=O)Nc2ccccc2Cl)cc1"
Return: 5.70 to 7.00

Enquiry: Return reported pEC50. Input molecule: "CCOC(=O)c1ccc(NC(=O)NCc2cn[nH]c2)cc1"
Return: 5.70 to 7.00

Enquiry: Return reported pEC50. Input molecule: "O=C(NCc1cn[nH]c1)Nc1ccc(C(=O)Nc2cccc(Cl)c2)cc1"
Return: 5.70 to 7.00

Enquiry: Return reported pEC50. Input molecule: "COc1cccc(CNS(=O)(=O)c2ccc(NC(=O)NCc3cn[nH]c3)cc2)c1"
Return: 5.70 to 7.00

Enquiry: Return reported pEC50. Input molecule: "O=C(NCc1cn[nH]c1)Nc1ccc(S(=O)(=O)c2cccc(Cl)c2)cc1"
Return: > 7.00

Enquiry: Return reported pEC50. Input molecule: "O=C(NCc1cn[nH]c1)Nc1ccc(S(=O)(=O)Nc2ccccn2)cc1"
Return: 5.30 to 5.70

Enquiry: Return reported pEC50. Input molecule: "CCOC(=O)c1ccc(NC(=O)NCc2c(C)noc2C)cc1"
Return: < 4.70

Enquiry: Return reported pEC50. Input molecule: "COc1ccccc1CNS(=O)(=O)c1ccc(NC(=O)NCc2cn[nH]c2)cc1"
Return: > 7.00

Enquiry: Return reported pEC50. Input molecule: "O=C(NCc1cn[nH]c1)Nc1ccc(S(=O)(=O)Nc2ccccc2)cc1"
Return: 5.70 to 7.00

Origin of the recorded values: patent US11452717B2
